target: Serine/threonine-protein kinase Chk1 (Homo sapiens); experiment: Inhibition of human Chk1 in H1299 cells assessed as blockade of Cdc25A degradation
Sequence (O14757 whole entry): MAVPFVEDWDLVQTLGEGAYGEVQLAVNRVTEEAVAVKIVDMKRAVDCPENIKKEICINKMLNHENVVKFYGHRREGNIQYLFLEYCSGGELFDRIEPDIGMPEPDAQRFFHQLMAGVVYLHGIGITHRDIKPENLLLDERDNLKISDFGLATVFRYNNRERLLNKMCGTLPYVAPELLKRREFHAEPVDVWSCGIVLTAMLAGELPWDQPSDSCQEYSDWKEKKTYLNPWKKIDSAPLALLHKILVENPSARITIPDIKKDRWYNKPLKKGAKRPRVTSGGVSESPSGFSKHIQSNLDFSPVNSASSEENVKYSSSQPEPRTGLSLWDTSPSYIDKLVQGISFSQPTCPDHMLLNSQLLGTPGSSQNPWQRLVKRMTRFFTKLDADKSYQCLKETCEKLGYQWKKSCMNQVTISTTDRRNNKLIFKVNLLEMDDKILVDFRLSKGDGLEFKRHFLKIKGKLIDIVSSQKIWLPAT
pEC50: −log10 of the molar value.
readout: pEC50

A selection of reference data follows.
[
  {
    "smilesRepr": "COc1cc2c(cc1OCc1csc(C)n1)Nc1cc(-c3ccc([N+](=O)[O-])c(OC)c3)ccc1C(=O)N2",
    "pEC50": "< 5.00"
  },
  {
    "smilesRepr": "COC(=O)CCc1cc2c(cc1OC)NC(=O)c1ccc(-c3ccc([N+](=O)[O-])c(OC)c3)cc1N2",
    "pEC50": "< 5.00"
  }
]

In: Fill in: pEC50 of COC(=O)c1cc2c(cc1OC)Nc1cc(-c3ccc([N+](=O)[O-])c(OC)c3)ccc1C(=O)N2 is ___
Out: < 5.00
